# Target Or Test System: CFTR (WT-NBD1-1S) (Homo sapiens, UniProt P13569, F494N)
# Sequence (P13569 389-678 F494N limits assumed): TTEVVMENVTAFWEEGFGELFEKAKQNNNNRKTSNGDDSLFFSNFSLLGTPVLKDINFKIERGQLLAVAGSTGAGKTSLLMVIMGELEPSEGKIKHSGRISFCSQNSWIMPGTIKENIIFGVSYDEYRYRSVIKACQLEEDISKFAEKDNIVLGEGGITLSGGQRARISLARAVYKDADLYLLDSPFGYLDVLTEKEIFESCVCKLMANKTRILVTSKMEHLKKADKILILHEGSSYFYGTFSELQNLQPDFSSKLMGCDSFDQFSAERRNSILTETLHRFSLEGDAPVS
# Test Protocol: biochemical
pKd: −log10 of the molar value.
Quantity Measured: pKd

INSERT INTO assay_data (compound, rel, observed_value) VALUES
  ('CC(C)(CO)c1cc2cc(NC(=O)C3(c4ccc5c(c4)OC(F)(F)O5)CC3)c(F)cc2n1C[C@@H](O)CO [VX-661, tezacaftor]', '<', 3.70),
  ('Cc1nn(C)cc1S(=O)(=O)NC(=O)c1ccc(-n2ccc(OCC(C)(C)C(F)(F)F)n2)nc1N1C[C@@H](C)CC1(C)C [compound 20, VX-445]', '=', 4.12);
